Values from patent US20020026053A1

Record form. Attribute: Met Kinase % Inhibition (P.130). Fill in for each entry.
Molecular target: Met receptor (EGFR/Met chimeric cells, EMR) (Homo sapiens, UniProt P08581)
Construct: expressed in transfected cells; the other entry of the earlier key: EGFR (P00533, Epidermal growth factor receptor)
Sequence (P08581 with tags, fused parts or gaps): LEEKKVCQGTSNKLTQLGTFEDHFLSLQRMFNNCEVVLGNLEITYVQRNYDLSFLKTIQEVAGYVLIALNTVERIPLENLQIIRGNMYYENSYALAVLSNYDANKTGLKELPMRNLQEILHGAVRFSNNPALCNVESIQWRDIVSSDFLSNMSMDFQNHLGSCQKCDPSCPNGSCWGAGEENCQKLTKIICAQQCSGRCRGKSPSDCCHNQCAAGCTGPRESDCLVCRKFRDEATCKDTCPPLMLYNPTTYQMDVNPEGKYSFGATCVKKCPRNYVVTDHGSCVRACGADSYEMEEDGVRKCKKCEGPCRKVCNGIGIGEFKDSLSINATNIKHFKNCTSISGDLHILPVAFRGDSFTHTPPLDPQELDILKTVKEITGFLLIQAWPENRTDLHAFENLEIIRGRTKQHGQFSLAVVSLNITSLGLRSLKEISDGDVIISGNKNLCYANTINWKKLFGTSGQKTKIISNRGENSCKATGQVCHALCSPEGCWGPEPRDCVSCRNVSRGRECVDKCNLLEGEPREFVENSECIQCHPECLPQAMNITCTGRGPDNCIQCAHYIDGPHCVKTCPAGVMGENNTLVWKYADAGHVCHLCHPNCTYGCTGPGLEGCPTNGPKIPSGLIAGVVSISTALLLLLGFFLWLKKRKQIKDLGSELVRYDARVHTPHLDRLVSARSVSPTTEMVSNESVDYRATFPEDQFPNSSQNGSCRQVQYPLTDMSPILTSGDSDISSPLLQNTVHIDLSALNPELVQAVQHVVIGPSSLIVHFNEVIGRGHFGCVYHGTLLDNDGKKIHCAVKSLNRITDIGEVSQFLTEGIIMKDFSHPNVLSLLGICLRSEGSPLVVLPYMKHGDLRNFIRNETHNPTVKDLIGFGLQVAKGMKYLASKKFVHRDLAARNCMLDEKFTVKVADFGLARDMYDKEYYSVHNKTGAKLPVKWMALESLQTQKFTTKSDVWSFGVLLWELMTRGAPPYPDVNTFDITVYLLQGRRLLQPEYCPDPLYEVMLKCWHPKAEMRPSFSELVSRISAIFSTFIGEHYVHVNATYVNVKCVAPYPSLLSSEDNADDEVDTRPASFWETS
Assay: Met Autophosphorylation Assay; note: test concentration or dose not given here
Assay type: biochemical
Conditions: protocol P.130
Numbers only, in %.

Each molecule below has a reported value. Please supply its Met Kinase % Inhibition (P.130).
1. O=C1Nc2ccc(S(=O)(=O)N3CCOCC3)cc2C1=Cc1ccc2ccccc2n1 [10740/F06]
2. O=C1Nc2ccc(S(=O)(=O)N3CCOCC3)cc2C1=Cc1ccc(Cl)c(Cl)c1 [10738/F08]
3. O=C1Nc2c(Br)cc(Br)cc2C1=Cc1cc(O)cc(O)c1 [10738/A07]
4. CNS(=O)(=O)c1ccc2c(c1)C(=Cc1ccc(OC)c(C)c1)C(=O)N2 [10739/D02]

Solution:
25.3
60.5
72.7
29.0
